B1: FLAG-GST-SALL4 (wild type) [human] / biotinylated CRBN (wild type) [modified: biotin (added by BirA during cell-free synthesis); biotin (added by BirA during cell-free synthesis)] [human] (parent)
chain 1: MSRRKQAKPQHINSEEDQGEQQPQQQTPEFADAAPAAPAAGELGAPVNHPGNDEVASEDEATVKRLRREETHVCEKCCAEFFSISEFLEHKKNCTKNPPVLIMNDSEGPVPSEDFSGAVLSHQPTSPGSKDCHRENGGSSEDMKEKPDAESVVYLKTETALPPTPQDISYLAKGKVANTNVTLQALRGTKVAVNQRSADALPAPVPGANSIPWVLEQILCLQQQQLQQIQLTEQIRIQVNMWASHALHSSGAGADTLKTLGSHMSQQVSAAVALLSQKAGSQGLSLDALKQAKLPHANIPSATSSLSPGLAPFTLKPDGTRVLPNVMSRLPSALLPQAPGSVLFQSPFSTVALDTSKKGKGKPPNISAVDVKPKDEAALYKHKCKYCSKVFGTDSSLQIHLRSHTGERPFVCSVCGHRFTTKGNLKVHFHRHPQVKANPQLFAEFQDKVAAGNGIPYALSVPDPIDEPSLSLDSKPVLVTTSVGLPQNLSSGTNPKDLTGGSLPGDLQPGPSPESEGGPTLPGVGPNYNSPRAGGFQGSGTPEPGSETLKLQQLVENIDKATTDPNECLICHRVLSCQSSLKMHYRTHTGERPFQCKICGRAFSTKGNLKTHLGVHRTNTSIKTQHSCPICQKKFTNAVMLQQHIRMHMGGQIPNTPLPENPCDFTGSEPMTVGENGSTGAICHDDVIESIDVEEVSSQEAPSSSSKVPTPLPSIHSASPTLGFAMMASLDAPGKVGPAPFNLQRQGSRENGSVESDGLTNDSSSLMGDQEYQSRSPDILETTSFQALSPANSQAESIKSKSPDAGSKAESSENSRTEMEGRSSLPSTFIRAPPTYVKVEVPGTFVGPSTLSPGMTPLLAAQPRRQAKQHGCTRCGKNFSSASALQIHERTHTGEKPFVCNICGRAFTTKGNLKVHYMTHGANNNSARRGRKLAIENTMALLGTDGKRVSEIFPKEILAPSVNVDPVVWNQYTSMLNGGLAVKTNEISVIQSGGVPTLPVSLGATSVVNNATVSKMDGSQSGISADVEKPSATDGVPKHQFPHFLEENKIAVS
chain 2: MAGEGDQQDAAHNMGNHLPLLPAESEEEDEMEVEDQDSKEAKKPNIINFDTSLPTSHTYLGADMEEFHGRTLHDDDSCQVIPVLPQVMMILIPGQTLPLQLFHPQEVSMVRNLIQKDRTFAVLAYSNVQEREAQFGTTAEIYAYREEQDFGIEIVKVKAIGRQRFKVLELRTQSDGIQQAKVQILPECVLPSTMSAVQLESLNKCQIFPSKPVSREDQCSYKWWQKYQKRKFHCANLTSWPRWLYSLYDAETLMDRIKKQLREWDENLKDDSLPSNPIDFSYRVAACLPIDDVLRIQLLKIGSAIQRLRCELDIMNKCTSLCCKQCQETEITTKNEIFSLSLCGPMAAYVNPHGYVHETLTVYKACNLNLIGRPSTEHSWFPGYAWTVAQCKICASHIGWKFTATKKDMSPQKFWGLTRSALLPTIPDTEDEISPDKVILCL

# Variants of: B1
# testMethodNotes: AlphaScreen (AS-based interaction assay)
# measurementContext: with biotinylated CRBN (wild type) [modified: biotin (added by BirA during cell-free synthesis), (S)-5HT, last (highest) point of the titration, Log[(S)-5HT (µM)] = 2, signal relative to DMSO = 1, read off a plot
property: response (Relative AS signal)
Give bare numbers.

mutationKey	response (Relative AS signal)
chain 1 V411L	14
chain 1 V411I	63

Give measured response (Relative AS signal) for every item shown.
1. chain 1 V411T
2. chain 1 V411A

Given back:
1. 47
2. 29
